Test system: microorganisms
Test: Morphology, biofilm and growth disruption by peptides (Table 5)
Assay type: cell-based
Set-up: key: A: Peptide aggregates; B: Less hyphal formation; Clumps; Diffuse clumps and small polyps; F: Diffuse growth; H: Thin; I: Growth inhibition; Microcolony formation; Rippled; Small polyps; Thick; W: Halo formation on top, microlonies on bottom
Conditions: S. epidermidis
measuredEndpoint: Organism, effect (morphology, biofilm and growth disruption)

- substance: "PF-629 (chain 1 GLAAIATVFALY; chain 2 GLAAIATVFALY; Peptide with targeting and/or antimicrobial activity)"
  recordedResult: "S. epidermidis (C)"
- substance: "PF-439 (RVLVLKKFHGIMDGNRNVAVFFVGQ; Peptide with targeting and/or antimicrobial activity)"
  recordedResult: "S. epidermidis (C)"
- substance: "PF-586 (FFNQANYFFKEF; Peptide with targeting and/or antimicrobial activity)"
  recordedResult: "S. epidermidis (C)"
